Data provenance is patent US20070231333A1.

Recorded KA, one value per entry.
# testSystem: T1, human 5T4 antigen (Homo sapiens, UniProt Q13641)
# T1 sequence (Q13641 32-420): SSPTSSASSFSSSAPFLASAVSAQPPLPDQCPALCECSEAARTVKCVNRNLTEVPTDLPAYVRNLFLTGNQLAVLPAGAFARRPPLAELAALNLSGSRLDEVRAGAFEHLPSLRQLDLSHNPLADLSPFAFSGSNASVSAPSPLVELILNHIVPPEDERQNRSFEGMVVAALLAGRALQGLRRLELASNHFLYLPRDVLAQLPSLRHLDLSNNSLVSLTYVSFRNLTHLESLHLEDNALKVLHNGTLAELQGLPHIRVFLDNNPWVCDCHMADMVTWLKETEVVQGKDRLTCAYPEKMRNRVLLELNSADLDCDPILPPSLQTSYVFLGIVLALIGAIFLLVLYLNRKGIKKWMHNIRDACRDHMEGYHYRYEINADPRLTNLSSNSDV
# protocolNotes: BIACORE analysis of antibody binding to human 5T4 antigen immobilized on a CM5 chip
# measurementConditions: chimeric and humanized antibodies, Table 12
attributeMeasured: KA (M⁻¹)

1. Chimeric A1 + C67F: chimeric A1 antibody bearing C67F mutation in the heavy chain variable region (antibody, V domains shown) VH: QIQLVQSGPELKKPGETVKISCKASGYTFTNFGMNWVKQGPGEGLKWMGWINTNTGEPRYAEEFKGRFAFSLETTASTAYLQINNLKNEDTATYFCARDWDGAYFFDYWGQGTTLTVSS VL: SIVMTQTPKFLLVSAGDRVTITCKASQSVSNDVAWYQQKPGQSPKLLINFATNRYTGVPNRFTGSGYGTDFTFTISTVQAEDLALYFCQQDYSSPWTFGGGTKLEIK; 2.6e+09
2. chimeric A2: chimeric A2 antibody: murine A2 variable regions, human IgG4 heavy chain and human kappa light chain constant regions (antibody, V domains shown) VH: QVQLQQSRPELVKPGASVKMSCKASGYTFTDYVISWVKQRTGQGLEWIGEIYPGSNSIYYNEKFKGRATLTADKSSSTAYMQLSSLTSEDSAVYFCAMGGNYGFDYWGQGTTLTVSS VL: QIVLTQSPAIMSASLGERVTLTCTASSSVNSNYLHWYQQKPGSSPKLWIYSTSNLASGVPARFSGSGSGTSYSLTISSMEAEDAATYYCHQYHRSPLTFGAGTKLELK; 5.7e+08
3. chimeric A1: chimeric A1 antibody: murine A1 variable regions, human IgG4 heavy chain and human kappa light chain constant regions (antibody, V domains shown) VH: QIQLVQSGPELKKPGETVKISCKASGYTFTNFGMNWVKQGPGEGLKWMGWINTNTGEPRYAEEFKGRCAFSLETTASTAYLQINNLKNEDTATYFCARDWDGAYFFDYWGQGTTLTVSS VL: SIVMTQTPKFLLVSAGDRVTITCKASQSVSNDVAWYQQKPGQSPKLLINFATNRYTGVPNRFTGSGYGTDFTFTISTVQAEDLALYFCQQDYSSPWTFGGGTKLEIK; 2.3e+09
